Test system: RPMI-8226 leukemia
Experiment: NCI-60 one-dose screen, 48 h (100 = growth as untreated, 0 = no growth, -100 = all killed)
Details: 10 µM unless noted
This is part of a sample that, as a whole, favours compounds with a hit. Of some 83,000 tested, about 20% had one in any assay. Active and inactive are the calls of the source. The calls were made as follows: active = growth percent below 10; inactive = the rest.
readout: growth

These recorded examples may help you get a feel for the data.
- compound: "CCOC(=O)c1ccc2c(c1)nc(-c1ccccc1)n2C1CCCCC1"
  growth: "63.7% (inactive)"
- compound: "CCCC/C=C/[C@@H]1C[C@H]1CCO"
  growth: "99.3% (inactive)"
- compound: "CCN1C(=O)N(CC)C2C1NN=c1s/c(=C\\c3ccccc3F)c(=O)n12 (configuration not stated)"
  growth: "21.4% (inactive)"
- compound: "O=C(c1ccccc1)c1ccc(C2CCCCC2)cc1"
  growth: "95.6% (inactive)"
- compound: "CN(C)CC(C)(C)C(=O)/C=C/c1ccccc1"
  growth: "-23.4% [25 µM] (active)"
- compound: "S=c1sc2c(Cl)nc(-c3cccnc3)nc2n1-c1ccccc1"
  growth: "-3.47% (active)"

I have this compound here, `CS(=O)(=O)Nc1cncc(-c2ccc3ncnc(Nc4cncc(Cl)c4)c3c2)c1` , and I need its recorded growth.
102% (inactive)
